The measured values listed here are drawn from the RNAGym collection of RNA variant scans (doi:10.1101/gr.219683.116).

B1: mRNA-splicing (parent)
chain: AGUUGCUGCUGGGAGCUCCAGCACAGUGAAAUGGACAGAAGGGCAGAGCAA

variants of: B1; experiment: exon inclusion enrichment index; higher = more inclusion; WT1 exon 5 minigene, HEK293
The class of a record is decided solely by its measured exon inclusion enrichment index; consult bottom range = under 0.4, center range = from 0.4 up to 2, top range = 2 and over

Worked cases, answers included:
| mutation_code | label_class |
| --- | --- |
| G5A U7C G8A U10C G34C A35G | center range |
| C6A U7A C9A U10A A40U G41C | center range |
| G5A U7C G8A U10C G33C G34U | center range |
| G5A C6G U7G C9A G28C A29U | bottom range |

Exercise: Entry G2A U3A G5A U7C G8A U10C belongs to which category?
Key: top range

Exercise: Entry G5C C6G U7C U10C G28U A29C belongs to which category?
Key: top range

Exercise: Entry G5A C6U U7A G8U C9A C44U A45G belongs to which category?
Key: bottom range

Exercise: Entry G5A U7C G8A U10C G46U belongs to which category?
Key: center range

Exercise: Entry C6A U7C C9A U10C A29G belongs to which category?
Key: top range

Exercise: Entry G5C C6G U7C U10C U17G C18A belongs to which category?
Key: top range

Exercise: Entry G5C C6G U7C U10C C18U C19A belongs to which category?
Key: center range

Exercise: Entry C6A U7C C9A U10C U32A G33U belongs to which category?
Key: top range

Exercise: Entry A20U G21A belongs to which category?
Key: center range
